system: COLO 205 colon; test: NCI-60 one-dose screen, 48 h; settings: 10 µM unless noted
This is part of a sample that, as a whole, favours compounds with a hit. Of some 83,000 tested, about 20% had one in any assay. Activity calls are given as the source filed them. Rule for the calls: active = growth percent below 10; inactive = the rest.
Allowed answers: Y (active), N (inactive)

Problem: Which result was noted for this compound in the test: O=C(/C=C/c1sc(Cl)nc1Cl)c1ccc(Br)cc1
Result: N

Problem: Cool, now CCCCCCn1c(-c2ccc(C(=O)O/N=C(\N)c3ccc(OC)cc3)cc2)nc(-c2ccccc2)c1-c1ccccc1
Result: Y

Problem: And for CSc1nc2ccc(C)cc2cc1/C=N/O ?
Result: N

Problem: And then O=c1[nH]c2c(ccc3cnccc32)c2c1CCC2 , what is it?
Result: Y
